// values below are reported melting point

compound	melting point
C[C@@H](NS(=O)(=O)N1CCN(C(=O)Nc2ccc(Oc3ccccc3)cc2)CC1)C(=O)NO	119 to 122 °C
O=C(NO)[C@H]1CCCCN1S(=O)(=O)N1CCCC1	142 to 144 °C
O=C(NO)C1CCCCN1S(=O)(=O)N1CC=C(c2ccc(Cl)cc2)CC1 (racemic)	137.8 to 138.1 °C
CC(C)[C@@H](NS(=O)(=O)N1CCC(Oc2ccc(Cl)cc2)CC1)C(=O)NO	139.2 to 139.6 °C
O=C(NO)[C@H](NS(=O)(=O)N1CCC(c2ccc(F)cc2)CC1)c1ccc(F)cc1	90 to 92 °C
CC(C)[C@@H](NS(=O)(=O)N1CCN(c2ccc(Cl)cc2)CC1)C(=O)NO	154.1 to 154.8 °C

Exam item: Query: melting point; subject: CC(C)[C@@H](NS(=O)(=O)N1CCC(c2nc(-c3ccccc3)c[nH]2)CC1)C(=O)NO
Marked response: 141 to 142.3 °C

Exam item: Need melting point, item CC(C)(NS(=O)(=O)N1CCC(C(=O)c2ccc(Cl)cc2)CC1)C(=O)NO
Marked response: 185.7 to 186.7 °C

====

The following compounds have recorded log10(IC50) on human collagenase-3 catalytic domain (Homo sapiens, UniProt P45452).
The figures below represent log10 of IC50, where IC50 is stated in nM.

// solved cases for log10(IC50) follow
compound	numeric readout
N#Cc1ccc2[nH]cc(C3CCN(S(=O)(=O)N4CCCC[C@@H]4C(=O)NO)CC3)c2c1 [compound 294]	2.53
CN(C)C(=O)N1CCN(S(=O)(=O)N2CCC(c3c[nH]c4c(F)c(F)c(F)c(F)c34)CC2)[C@@H](C(=O)NO)C1 [compound 309]	2.70
CC(=O)N1CCN(S(=O)(=O)N2CCC(C(=O)c3ccc(Cl)cc3)CC2)C(C(=O)NO)C1 (racemic) [compound 255]	-0.72
C[C@H](C(=O)O)N(Cc1ccccc1)S(=O)(=O)NCc1ccccc1 [compound 431]	3.81

Exam item: Record CC(C)[C@@H](NS(=O)(=O)N1CCN(c2ccc(Cl)cc2)CC1)C(=O)NO [compound 51] : what is its log10(IC50) with human collagenase-3 catalytic domain (Homo sapiens, UniProt P45452)?
Marked response: 0.41

Exam item: Find log10(IC50) (human collagenase-3 catalytic domain (Homo sapiens, UniProt P45452)) for the entry C[C@@H](NS(=O)(=O)N1CCN(C(=O)Nc2ccc(Cl)cc2)CC1)C(=O)NO [compound 177]
Marked response: 0.20

Exam item: human collagenase-3 catalytic domain (Homo sapiens, UniProt P45452) / log10(IC50) / CC(C)[C@H](C(=O)NO)N(Cc1ccccc1)S(=O)(=O)N1CCCCC1 [compound 1] : value?
Marked response: 2.82

Exam item: For the record O=CN1CCN(S(=O)(=O)N2CCC(C(=O)c3ccc(Cl)cc3)CC2)C(C(=O)NO)C1 (racemic) [compound 262] , what value of log10(IC50) is listed for human collagenase-3 catalytic domain (Homo sapiens, UniProt P45452)?
Marked response: -0.89

Exam item: State its log10(IC50) on human collagenase-3 catalytic domain (Homo sapiens, UniProt P45452): COCCN(CC(=O)NO)S(=O)(=O)N1CCN(c2ccc(Cl)cc2)CC1 [compound 16]
Marked response: 1.32

Exam item: Form field - read-out: log10(IC50); system: human collagenase-3 catalytic domain (Homo sapiens, UniProt P45452); submitted item: C[C@@H](NS(=O)(=O)N1CCN(c2ccc(Cl)cc2)CC1)C(=O)O [compound 414]
Marked response: 3.53

Exam item: I'm curious: which log10(IC50) was measured for O=C(NO)C1CCCCN1S(=O)(=O)N1CCC(c2noc3cc(F)ccc23)CC1 (racemic) [compound 286] tested on human collagenase-3 catalytic domain (Homo sapiens, UniProt P45452)?
Marked response: -1.20

Exam item: log10(IC50) of CC(C)[C@@H](NS(=O)(=O)N1CCC(Oc2ccc(Cl)cc2)CC1)C(=O)NO [compound 59] on human collagenase-3 catalytic domain (Homo sapiens, UniProt P45452)?
Marked response: -0.74

Exam item: Reported log10(IC50) for human collagenase-3 catalytic domain (Homo sapiens, UniProt P45452), given O=C(c1ccc(Cl)cc1)C1CCN(S(=O)(=O)N2CCCC[C@@H]2C(=O)NO)CC1 [compound 242] ?
Marked response: -1.20

Exam item: Fill in the recorded log10(IC50) for this compound, with human collagenase-3 catalytic domain (Homo sapiens, UniProt P45452) as test system: CC(C)[C@@H](NS(=O)(=O)N1CCN(c2ccc(Cl)cn2)CC1)C(=O)NO [compound 50]
Marked response: 0.11

Exam item: Entry O=C(NO)C1CCCCN1S(=O)(=O)N1CCC(c2c[nH]c3cc(Cl)ccc23)CC1 (racemic) [compound 256] , system human collagenase-3 catalytic domain (Homo sapiens, UniProt P45452): what log10(IC50) was measured?
Marked response: 1.52

Exam item: Find the measured log10(IC50): item O=C(NO)[C@H](CSCc1ccccc1)NS(=O)(=O)N1CCN(c2ccc(Cl)cn2)CC1 [compound 102] , target or system human collagenase-3 catalytic domain (Homo sapiens, UniProt P45452).
Marked response: -0.04

Exam item: Provide value of log10(IC50) for this record tested with human collagenase-3 catalytic domain (Homo sapiens, UniProt P45452): O=C(NO)C1(NS(=O)(=O)N2CCN(c3ccc(Cl)cn3)CC2)CCCCC1 [compound 342]
Marked response: 0.32

Exam item: Form: Entry = O=C(NO)C1CCCCN1S(=O)(=O)N1CCC(c2c[nH]c3ccc(F)cc23)CC1 (racemic) [compound 254] | System = human collagenase-3 catalytic domain (Homo sapiens, UniProt P45452) | log10(IC50) = ____
Marked response: 2.26
